ASSAY SUMMARY: Luminescent data (absorption, emission, quantum yield, brightness) in solvents
Format: physicochemical
MEASUREMENT CONTEXT: Octan-1-ol (ϵr 10.3, viscosity 7.36 cP)
Φ listing for selected compounds.

# SMILES NOTATION, Φ
measured = [
    ("CCCCCOc1cc2c3cc(OCCCCC)c(OCCCCC)cc3c3c(cc(OCCCCC)c4oc(-c5ccc6ccccc6c5)nc43)c2cc1OCCCCC", 0.71),
    ("CCCCCOc1cc2c3cc(OCCCCC)c(OCCCCC)cc3c3c(cc(OCCCCC)c4oc(-c5ccccc5)nc43)c2cc1OCCCCC", 0.61),
    ("CCCCCOc1cc2c3cc(OCCCCC)c(OCCCCC)cc3c3c(cc(OCCCCC)c4oc(CCCC)nc43)c2cc1OCCCCC", 0.30),
    ("CCCCCOc1cc2c3cc(OCCCCC)c(OCCCCC)cc3c3c(cc(OCCCCC)c4oc(-c5cccc6ccccc56)nc43)c2cc1OCCCCC", 0.55),
    ("CCCCCOc1cc2c3cc(OCCCCC)c(OCCCCC)cc3c3c(cc(OCCCCC)c4oc(-c5ccc6cc7ccccc7cc6c5)nc43)c2cc1OCCCCC", 0.56),
]
